For each of the binders below, state its koff.
Molecular target: T1, Biotinylated recombinant soluble human CD138 extracellular domain (Sino Biological, Cat. 11429-H08H) (human, UniProt P18827 18-251, biotin (EZ-Link NHS-SS-PEG4 Biotin) on primary amino groups of lysines, protein:biotin 1:20)
T1 construct: range 18-251; Bought reagent; The limits are printed as approximate; also called biotinylated CD138; recombinant CD138
T1 sequence (looked up): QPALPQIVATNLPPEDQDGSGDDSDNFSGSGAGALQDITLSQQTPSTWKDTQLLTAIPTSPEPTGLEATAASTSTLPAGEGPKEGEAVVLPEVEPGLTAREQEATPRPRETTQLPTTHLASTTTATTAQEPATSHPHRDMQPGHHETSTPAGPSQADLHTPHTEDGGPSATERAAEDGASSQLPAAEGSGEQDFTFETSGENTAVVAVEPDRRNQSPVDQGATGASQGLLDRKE
Experiment: BLI (Octet): biotinylated CD138 (10 nM) on streptavidin tips, antibody 12.5 and 25 nM, pH 6.0, 1:1 fit
Experimental: Binding experiments were carried using assay buffer comprised of 100 mM Sodium Phosphate+ 150 mM NaCl + 0.02% Tween-20 and adjusted to target pH of 7.4, 6.0, 6.4, or 6 using appropriate ratios of monobasic and dibasic sodium phosphate buffer. […] Data were analyzed for purposes of calculating approximate kinetic binding parameters and apparent binding affinities based on these rates. […]

Completed entries (count: 2):
1) Antibody Ab32 (antibody, V domains shown) VH: EVQLVQSGAEVKKPGASVKVSCKASGYSFSSYYMHWVRQAPGQGLEWMGTIHPSDSTTNYNQKFQGRVTMTVDTSTRTAYMELSSLRSEDTAVYYCADFLYWGQGTTVTVSS VL: DIVMTQTPLSLSVTPGQPASISCKSSKSLLYKDGKTYLNWFLQKPGQSPQLLIYVVSTRASGVPDRFSGSGSGTDFTLKISRVEAEDVGVYYCQQLVEYPYTFGQGTKLEIK; 0.0036 s⁻¹
2) Antibody Ab30 (antibody, V domains shown) VH: EVQLVQSGAEVKKPGASVKVSCKASGYSFSSYYMHWVRQAPGQGLEWMGTIHPEDSTTNYNQKFQGRVTMTVDTSTRTAYMELSSLRSEDTAVYYCADFVYWGQGTTVTVSS VL: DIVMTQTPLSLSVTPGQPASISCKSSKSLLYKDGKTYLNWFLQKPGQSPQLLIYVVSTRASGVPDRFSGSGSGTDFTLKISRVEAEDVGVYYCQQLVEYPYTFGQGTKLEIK; 0.0034 s⁻¹

I'm hoping you can list koff for every binder here, please.
1. Antibody Ab43 (antibody, V domains shown) VH: EVQLVQSGAEVKKPGASVKVSCKASGYSFSSYYMHWVRQAPGQGLEWMGTIHPSDSTTNYNQKFQGRVTMTVDTSTRTAYMELSSLRSEDTAVYYCADFVYWGQGTTVTVSS VL: DIVMTQTPLSLSVTPGQPASISCKSSKSLLYKDGKTYLLWFLQKPGQSPQLLIYVVSTRASGVPDRFSGSGSGTDFTLKISRVEAEDVGVYYCQQLVEYPYTFGQGTKLEIK
2. Antibody Ab71 (antibody, V domains shown) VH: QVQLVQSGAEVKKPGASVKVSCKASGYSFSSYYMHWVRQAPGQGLEWMGDIHPSDSTTNYNQKFQGRVTMTVDTSTRTAYMELSSLRSEDTAVYYCANFVYWGQGTTVTVSS VL: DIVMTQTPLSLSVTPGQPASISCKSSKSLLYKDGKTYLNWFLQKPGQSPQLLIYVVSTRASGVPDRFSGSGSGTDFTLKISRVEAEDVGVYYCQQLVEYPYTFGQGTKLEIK

Key:
1: 0.0041 s⁻¹; 2: 0.0011 s⁻¹
